TARGET OR SYSTEM: human α-thrombin (recombinant) (human), P00734
PROTOCOL TEXT: thrombin amidolytic assay with S2238; column headed Affinity (nM)
VALUE KIND: Ki (pM)

>>> observed_measurement("SDEAVRAIPKMYSTAPPGDFEEIPDDAIEE (modifications not checked) [ultravariegin]")
1
